# system_name: Dihydrolipoyl dehydrogenase (Mycobacterium tuberculosis (strain CDC 1551 / Oshkosh), UniProt P9WHH8)
# test_name: Enzyme Assays
pIC50: −log10 of the molar value.
Below: a set of entries, each annotated with reported pIC50.
measure: pIC50

[[record]]
compound = "O=C(Nc1ccc(Br)cc1)C1CCC(S(=O)(=O)c2cccnc2)CC1 (stereo unspecified) [C324-0095]"
measure = "pIC50"
measurement = "< 4.00"

[[record]]
compound = "CCN(Cc1ccccc1)C(=O)CN(C)S(=O)(=O)c1cc(Br)cnc1N [E114-0951]"
measure = "pIC50"
measurement = 4.90

[[record]]
compound = "Nc1ncc(Br)cc1S(=O)(=O)NCCC(=O)Nc1cccc(Cl)c1 [K906-3123]"
measure = "pIC50"
measurement = "< 4.00"

[[record]]
compound = "CC1CCCCC1NC(=O)CN(C)S(=O)(=O)c1cccc2cccnc12 (stereo unspecified)"
measure = "pIC50"
measurement = "< 4.00"

[[record]]
compound = "CC(C)(C)NC(=O)C(=O)NCc1cccnc1 [4031-1995]"
measure = "pIC50"
measurement = 4.00

[[record]]
compound = "CN1CCN(S(=O)(=O)c2cc(Br)cnc2N)CC1 [E138-2099]"
measure = "pIC50"
measurement = "< 4.00"

[[record]]
compound = "CCCCN(C)C(=O)CCNS(=O)(=O)c1cc(Br)cnc1N [E199-0112]"
measure = "pIC50"
measurement = "< 4.00"

[[record]]
compound = "CN(Cc1ccccc1)C(=O)CN(C)S(=O)(=O)c1cc(Br)cnc1N [E144-0828]"
measure = "pIC50"
measurement = 4.47

[[record]]
compound = "Cc1cc(NC(=O)CN(C)S(=O)(=O)c2cc(Br)cnc2N)ccc1Br [K906-3584]"
measure = "pIC50"
measurement = "> 7.00"

[[record]]
compound = "CCCCNS(=O)(=O)c1cc(Br)cnc1N [E138-2195]"
measure = "pIC50"
measurement = "< 4.00"

[[record]]
compound = "NC(=O)C(=O)NCc1cccnc1 [4031-0653]"
measure = "pIC50"
measurement = 5.22


====

# system_name: Dihydrolipoyl dehydrogenase (Mycobacterium tuberculosis (strain CDC 1551 / Oshkosh))
# Sequence (P9WHH8 whole entry): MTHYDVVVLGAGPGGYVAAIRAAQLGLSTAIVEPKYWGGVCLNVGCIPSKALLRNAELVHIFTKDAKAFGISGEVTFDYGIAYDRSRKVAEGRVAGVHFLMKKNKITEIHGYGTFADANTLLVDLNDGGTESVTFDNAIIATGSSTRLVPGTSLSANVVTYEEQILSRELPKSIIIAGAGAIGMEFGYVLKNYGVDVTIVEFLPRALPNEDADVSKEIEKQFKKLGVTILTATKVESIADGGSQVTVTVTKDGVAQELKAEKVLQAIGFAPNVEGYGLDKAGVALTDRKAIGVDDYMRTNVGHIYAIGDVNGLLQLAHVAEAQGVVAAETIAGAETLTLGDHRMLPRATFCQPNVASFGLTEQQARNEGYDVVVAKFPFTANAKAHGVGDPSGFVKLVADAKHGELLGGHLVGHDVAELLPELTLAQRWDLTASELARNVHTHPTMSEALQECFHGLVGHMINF
# test_name: Enzyme Assays
pKi: −log10 of the molar value.
measure: pKi

[[record]]
molecule = "CN(CC(=O)Nc1ccc(F)c(Cl)c1)S(=O)(=O)c1cc(Br)cnc1N [SL418]"
measurement = 6.84

